In this section, each of the compounds is paired with its reported IC50.
biological target: hOCT3 (Homo sapiens, UniProt O75751); construct: expressed in transfected cells; assay: [3H]MPP+ uptake inhibition assay, HEK293 cells stably expressing hOCT3; assay type: cell-based
Sequence (O75751 whole entry): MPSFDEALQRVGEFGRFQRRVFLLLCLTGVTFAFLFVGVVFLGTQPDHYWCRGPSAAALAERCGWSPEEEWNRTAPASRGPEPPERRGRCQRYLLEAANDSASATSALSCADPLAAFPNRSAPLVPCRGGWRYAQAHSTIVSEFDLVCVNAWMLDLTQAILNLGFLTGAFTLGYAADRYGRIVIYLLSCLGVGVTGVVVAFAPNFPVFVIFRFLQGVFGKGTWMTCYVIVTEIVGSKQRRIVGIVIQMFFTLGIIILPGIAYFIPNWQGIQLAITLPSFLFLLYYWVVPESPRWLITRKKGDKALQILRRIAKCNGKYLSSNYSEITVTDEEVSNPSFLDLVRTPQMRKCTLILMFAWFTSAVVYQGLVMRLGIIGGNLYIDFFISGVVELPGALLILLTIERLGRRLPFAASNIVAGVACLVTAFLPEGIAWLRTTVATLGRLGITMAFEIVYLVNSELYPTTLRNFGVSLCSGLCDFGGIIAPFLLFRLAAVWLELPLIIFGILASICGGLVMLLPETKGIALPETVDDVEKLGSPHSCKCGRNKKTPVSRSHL

Look over these answered cases.
// query IC50 value for entry "CCC[C@H](C(=O)c1ccccc1)N1CCCC1"
1020 µM

// query IC50 value for entry CNC(C)Cc1ccc2c(c1)OCO2 (stereo not drawn)
154 µM

// next entry
// query IC50 value for entry "C[C@H](N)Cc1ccccc1"
337 µM

###

In this section, each of the compounds is paired with its reported pIC50.
biological target: hOCT3 (Homo sapiens); construct: expressed in transfected cells; assay: [3H]MPP+ uptake inhibition assay, HEK293 cells stably expressing hOCT3; format: cell-based; details: HEK293 stably expressing hOCT3; 0.05 μM [3H]MPP+; 10 min pre-incubation, 10 min uptake; brackets in Table S1 = 95%-CI; n.s. = non-significant; read-out: IC50 hOCT3 (inhibitory potency, [3H]MPP+ uptake)
In textbook form, pIC50 equals minus log to base ten of the concentration in mol/L.

// query pIC50 value for entry CCN1/C(=C/c2ccc3ccccc3[n+]2CC)C=Cc2ccccc21 [Decynium-22]
6.80

Others:
// query pIC50 value for entry CC(NC(C)(C)C)C(=O)c1cccc(Cl)c1 (centres unmarked) [Bupropion, bupropion]
3.73
